# System: UO-31 renal
# experimental.protocol: NCI tumour cell line growth inhibition, 48 h
Some molecules, each annotated with its measured TGI.
property.measured: TGI

COC(=O)c1cc(NC(=O)c2cc(NC(=O)c3cc([N+](=O)[O-])cn3C)cn2C)cn1C; > 100 µM
O=c1[nH]nc(-c2ccccc2)n1/N=C/c1ccncc1; > 100 µM
CN1C(=S)C(c2ccccc2)Sc2ccccc21 (stereo not drawn); > 100 µM
CC/C=C\C[C@H](O)C/C=C1/C(=O)C=C[C@@H]1C/C=C\CCCC(=O)N(C)C; 2.93 µM
NC1CCN(c2nc(Nc3cccc(C(F)(F)F)c3)c3c(=O)[nH]ccc3n2)CC1; 2.62 µM
O=C(/C=C/c1ccsc1)c1ccco1; 22.7 µM
Cn1ccn2c3nc4ccccc4nc3c(=O)c(C#N)c12; > 100 µM
C/C(=N\NS(=O)(=O)c1ccccc1)c1ccccc1; > 100 µM
COC(=O)c1ccccc1C#CC#Cc1ccccc1C(=O)OC; > 10 µM
CCCCc1c(C(=O)OC(C)(C)C)cc(C#Cc2cc(C(=O)OC(C)(C)C)c(CCCC)c(C(=O)OC(C)(C)C)c2)cc1C(=O)OC(C)(C)C; > 100 µM
O=C1C[C@@H]2C(COC(=O)c3ccccc3)N(OCc3ccccc3)C[C@@H]2O1 (stereo partly drawn); > 100 µM
N=C(N=C(N)N)N1CCN(c2ccncc2)CC1; > 1000 µM
COc1cc(C2SCC(=O)N2c2ccc(-n3c(-c4ccccc4)nc4ccccc4c3=O)cc2)ccc1O (stereo not drawn); 97.7 µM
COc1cc2c3c(n(CCCNCCN)c(=O)c2cc1OC)-c1cc2c(cc1C3=O)OCO2; > 32.9 µM
CCC(=O)C(C)C1=Nc2nnc(CCCCCCCc3nnc4n3C(=O)C(C(C)C(=O)CC)=N4)n2C1=O (stereo not drawn); > 100 µM
O=C(CC/C=C(/CS(=O)(=O)c1ccccc1)S(=O)(=O)c1ccccc1)c1ccccc1; > 100 µM
O=c1/c(=C\c2ccccc2)sc2n1C(c1ccccc1)C1(O)CCCCC1N=2 (stereo not drawn); > 100 µM
Cn1ncc2c(N)nc(N3CCCCC3)nc21; > 100 µM
CN(CN1C(=O)C2Cc3ccccc3CN2C1=O)c1ccccn1 (stereo not drawn); > 100 µM
CC(=O)N1CCc2c([nH]c3ccc(Br)cc23)C1c1ccccc1 (stereo not drawn); > 10 µM
O=[N+]([O-])c1ccc(N/N=C/c2c(O)ccc3ccccc23)nc1; > 100 µM
O=C1CSc2nc3ccccc3n2/C=N\N1; > 100 µM
CCCCCC(=O)c1ccc2[nH]c3c(C)cc([N+](=O)[O-])c(C)c3c2c1; > 100 µM
O=C(Nc1ccc(F)cc1)c1c(NC(=O)C(F)(F)F)sc2c1CCCCC2; 6.9 µM
CCCCCCCCCCCCCCCCCCNc1ccn(C2OC(COP(=O)(O)OCC3CCC(n4cnc5c(=O)[nH]cnc54)O3)C(O)C2O)c(=O)n1 (stereo not drawn); > 100 µM
NCCCn1c2ccccc2c2c3c(c4c(c21)CCC(O)CC4)C(=O)NC3=O (stereo not drawn); 19.9 µM
O=c1[nH]nc(-c2ccccc2)n1/N=C/c1c[nH]c2ccccc12; > 100 µM
Nc1ccc(S(=O)(=O)C23CC4CC(CC(C4)C2)C3)cc1; > 100 µM
Cc1ccc(S(=O)(=O)/N=C(\NN)Nc2ccc(Cl)cc2)cc1; > 100 µM
CN(C)CCCN1c2nc3ccccc3cc2Sc2cc3ccccc3nc21; 2.71 µM
COCC(=O)CP(=O)(OC)OC; > 100 µM
C=CCOCn1cnc2c(N)ncnc21; > 100 µM
Clc1ccc2sc(-n3ccc4ccccc43)nc2c1; > 100 µM
COC(=O)c1c2c(c(C)[n+]([O-])c1C)C(=O)C=C(NCc1ccc(F)c(F)c1)C2=O; 2.35 µM
C/C(=N/NC(=S)Nc1ccccc1Cl)c1cccc(/C(C)=N\NC(=S)Nc2ccccc2Cl)n1; > 100 µM
CNc1ccc(-c2nc3cc(C)ccc3o2)cc1; > 100 µM
COC1CC2C=C(C)/C=C/C=C/C(=O)NC(c3ccccc3)C/C=C/CCC(O)CC(=O)C2=C1O (stereo not drawn); 1.14 µM
COc1cc(/C=C\[N+](=O)[O-])ccc1OCc1ccccc1; 3.06 µM
CN(C(=O)Cc1ccc(Cl)c(Cl)c1)[C@H]1CCCC[C@@H]1[N+]1(C)CCCC1; > 100 µM
Cc1cc(-c2[nH]c(C(=O)O)cc2I)on1; > 100 µM
CC(C)c1ccc(/C(C(=O)O)=C(\O)C(=O)O)cc1; > 100 µM
COc1ccc(O[C@H](COCc2ccccc2)C[C@@H]2COC(C)(C)O2)cc1; > 100 µM
C[C@]1(CO)[C@H]2CC[C@@]34C=C[C@@](CO)(CC[C@H]3[C@]2(C)CC[C@H]1O)C4; > 100 µM

Cited source for all entries: PubChem BioAssay (NCI)
